Reported inhibition by item:
- tested.system: UniProt P11387
- protocol.text: Inhibition of recombinant human topoisomerase 1-mediated DNA relaxation expressed in Saccharomyces cerevisiae TopI null strain RS190 at 10 uM using negatively supercoiled pUC18 as substrate pretreated with enzyme for 15 mins followed by substrate addition measured after 3 mins by agarose gel electrophoresis
property.label: inhibition (%)

# query.smiles, property.label, quantity.unit, observed.value
rows = [
    ("FC(F)(F)c1ccc(-c2cc(-c3ccccc3)c3cccc(P(=S)(c4ccccc4)c4ccccc4)c3n2)cc1", "inhibition", "%", 8),
    ("c1ccc([C@H]2C[C@@H](c3ccccc3)Nc3c2cccc3P(c2ccccc2)c2ccccc2)cc1", "inhibition", "%", 0),
    ("S=P(c1ccccc1)(c1ccccc1)c1cccc2c1N[C@H](c1ccccc1)C[C@@H]2c1ccccc1", "inhibition", "%", 0),
    ("Cc1ccc([C@H]2C[C@@H](c3ccccc3)Nc3c2cccc3P(c2ccccc2)c2ccccc2)cc1", "inhibition", "%", 0),
    ("S=P(c1ccccc1)(c1ccccc1)c1cccc2c1N[C@H](c1ccc3ccccc3c1)C[C@@H]2c1ccccc1", "inhibition", "%", 15),
    ("Fc1ccc([C@H]2C[C@@H](c3ccc(F)cc3)Nc3c2cccc3P(=S)(c2ccccc2)c2ccccc2)cc1", "inhibition", "%", 17),
    ("Cc1ccc([C@H]2C[C@@H](c3ccc(F)cc3)Nc3c2cccc3P(c2ccccc2)c2ccccc2)cc1", "inhibition", "%", 20),
    ("Fc1ccc([C@H]2C[C@@H](c3ccc(F)cc3)Nc3c2cccc3P(c2ccccc2)c2ccccc2)cc1", "inhibition", "%", 0),
    ("O=P(c1ccccc1)(c1ccccc1)c1cccc2c1N[C@H](c1ccccn1)C[C@@H]2c1ccccc1", "inhibition", "%", 19),
]

* * *

- tested.system: UniProt:P11387
- protocol.text: Inhibition of recombinant human topoisomerase 1-mediated DNA relaxation expressed in Saccharomyces cerevisiae TopI null strain RS190 at 80 uM using negatively supercoiled pUC18 as substrate pretreated with enzyme for 15 mins followed by substrate addition measured after 15 secs by agarose gel electrophoresis

# query.smiles, quantity.unit, inhibition
data = [
    ("Cc1ccc([C@H]2C[C@@H](c3ccc(F)cc3)Nc3c2cccc3P(c2ccccc2)c2ccccc2)cc1", "%", 96),
    ("Fc1ccc([C@@H]2C[C@H](c3ccccc3)c3cccc(P(=S)(c4ccccc4)c4ccccc4)c3N2)cc1F", "%", 57),
    ("S=P(c1ccccc1)(c1ccccc1)c1cccc2c1N[C@H](c1ccccc1)C[C@@H]2c1ccccc1", "%", 81),
    ("COc1ccc([C@@H]2C[C@H](c3ccc(C)cc3)c3cccc(P(c4ccccc4)c4ccccc4)c3N2)cc1", "%", 52),
    ("Fc1ccc([C@H]2C[C@@H](c3ccc(F)cc3)Nc3c2cccc3P(c2ccccc2)c2ccccc2)cc1", "%", 78),
    ("O=P(c1ccccc1)(c1ccccc1)c1cccc2c1N[C@H](c1ccc(F)cc1)C[C@@H]2c1ccc(F)cc1", "%", 54),
    ("Cc1ccc([C@H]2C[C@@H](c3ccccc3)Nc3c2cccc3P(c2ccccc2)c2ccccc2)cc1", "%", 80),
    ("O=P(c1ccccc1)(c1ccccc1)c1cccc2c(-c3ccccc3)cc(-c3ccccc3)nc12", "%", 57),
]

* * *

- tested.system: DNA topoisomerase 1 (Homo sapiens) (UniProt P11387)
- Sequence (P11387 whole entry): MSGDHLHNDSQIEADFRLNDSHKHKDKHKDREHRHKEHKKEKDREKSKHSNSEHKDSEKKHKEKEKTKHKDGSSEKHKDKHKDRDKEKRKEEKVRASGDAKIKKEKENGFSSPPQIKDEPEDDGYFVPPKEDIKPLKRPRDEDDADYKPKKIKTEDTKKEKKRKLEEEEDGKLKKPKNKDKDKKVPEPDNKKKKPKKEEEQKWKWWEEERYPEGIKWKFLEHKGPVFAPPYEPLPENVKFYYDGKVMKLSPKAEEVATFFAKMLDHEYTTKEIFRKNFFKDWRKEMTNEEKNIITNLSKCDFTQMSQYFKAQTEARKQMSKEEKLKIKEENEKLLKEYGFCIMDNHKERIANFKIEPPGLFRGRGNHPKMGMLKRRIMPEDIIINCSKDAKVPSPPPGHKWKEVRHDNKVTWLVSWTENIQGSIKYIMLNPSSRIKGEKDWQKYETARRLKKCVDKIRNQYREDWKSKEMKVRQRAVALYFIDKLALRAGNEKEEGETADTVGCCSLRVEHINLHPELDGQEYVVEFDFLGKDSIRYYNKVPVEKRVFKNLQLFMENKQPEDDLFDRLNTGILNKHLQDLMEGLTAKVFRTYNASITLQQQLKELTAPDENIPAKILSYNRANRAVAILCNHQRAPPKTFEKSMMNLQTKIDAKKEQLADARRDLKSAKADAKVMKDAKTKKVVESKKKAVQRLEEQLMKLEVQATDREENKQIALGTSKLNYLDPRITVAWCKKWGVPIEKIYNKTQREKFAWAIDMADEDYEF
- protocol.text: Inhibition of recombinant human topoisomerase 1-mediated DNA relaxation expressed in Saccharomyces cerevisiae TopI null strain RS190 at 80 uM using negatively supercoiled pUC18 as substrate pretreated with enzyme for 15 mins followed by substrate addition measured after 3 mins by agarose gel electrophoresis
Think of 40% as a floor: if inhibition stands on it or above, it is true; beneath it, false.

# query.smiles, category
measured = [
    ("O=P(c1ccccc1)(c1ccccc1)c1cccc2c(-c3ccccc3)cc(-c3cccc4ccccc34)nc12", "true"),
    ("O=P(c1ccccc1)(c1ccccc1)c1cccc2c(-c3ccc(F)cc3)cc(-c3ccc(F)cc3)nc12", "false"),
    ("COc1ccc([C@@H]2C[C@H](c3ccc(C)cc3)c3cccc(P(c4ccccc4)c4ccccc4)c3N2)cc1", "true"),
    ("Fc1ccc([C@H]2C[C@@H](c3ccc(F)cc3)Nc3c2cccc3P(=S)(c2ccccc2)c2ccccc2)cc1", "true"),
    ("O=P(c1ccccc1)(c1ccccc1)c1cccc2c(-c3ccccc3)cc(-c3ccccc3)nc12", "false"),
    ("O=P(c1ccccc1)(c1ccccc1)c1cccc2c1N[C@H](c1ccccc1)C[C@@H]2c1ccccc1", "false"),
    ("Fc1ccc([C@@H]2C[C@H](c3ccccc3)c3cccc(P(=S)(c4ccccc4)c4ccccc4)c3N2)cc1", "false"),
    ("Cc1ccc([C@H]2C[C@@H](c3ccc(F)cc3)Nc3c2cccc3P(c2ccccc2)c2ccccc2)cc1", "true"),
]
